# IC50 values compiled below
tested on: human colon cancer cell HT-29; assay: Colon cancer cell HT-29 growth suppressive action in vitro (SRB); assay type: cell-based; settings: 72 h, HT-29 cells, cultured for 3 days with compound, SRB staining, read-out: IC50 (nM), HT-29 growth suppression

Cc1ccc(NC(=O)c2cccc(C(C)(C)C#N)c2)cc1Oc1ccc2nc(NC(=O)C3CC3)nn2c1
< 500 nM

Attention now shifts to the item below.
Query: May I ask what IC50 has been recorded for CC(C)(C#N)c1cccc(C(=O)Nc2cccc(Oc3ccc4nc(NC(=O)C5CC5)cn4c3)c2)c1 ?
Reply: < 500 nM
